These entries and their values trace back to paper PMC5041495.

target: alpha-thrombin (human, UniProt P00734;P00734 328-363;364-622); assay: BLI
ATTRIBUTE MEASURED: Kd (nM)
Unit nM implied. Number only.

Value of Kd reported for the binder GGGAACAAAGCUGAAGUACUUACCC (structured_RNA, 2'-F pyrimidines (from crystal construct; ST-2 not in material)) [AF113-1] is 1.87
